# pest or weed control at 500 g/ha per entry
tested on: morningglory (Ipomoea spp.); assay: Test A pre/postemergence; type: in vivo; settings: Ipomoea, post-emergence, 240 h, Postemergence, 500 g ai/ha; 0 to 100 scale (0 no effect, 100 complete control); read-out: Plant response rating, Morningglory
property: pest or weed control at 500 g/ha (%)

> print(dat)
                                   compound  endpoint.unit  measured.value
1  Nc1nc(C2CC2)nc(C(=O)[O-])c1Br.[Na+] [Compound 113, monosodium salt]              %              90
2                NC(=O)c1nc(C2CC2)nc(N)c1Cl              %              75
3        Nc1nc(-c2ccc(Br)cc2)nc(C(=O)O)c1Cl              %              80
4       COC(=O)c1nc(-c2ccc(Cl)cc2)nc(N)c1Cl              %              80

====

system: velvetleaf (Abutilon theophrasti); assay: Test B pre/postemergence; assay type: in vivo; conditions: Postemergence, 62 g ai/ha; scale 0 to 100 (0 no effect, 100 complete control)
property: Velvetleaf plant response rating

> print(dat)
                            chemical.string  measured.value
1  Nc1nc(-c2ccc(Cl)cc2)nc(C(=O)[O-])c1Cl.[Na+]              90
2        COC(=O)c1nc(-c2ccc(I)cc2)nc(N)c1Br              50
3        COC(=O)c1nc(-c2ccc(F)cc2)nc(N)c1Br              50
4        Nc1nc(-c2ccc(Br)cc2)nc(C(=O)O)c1Br              80
5                Nc1nc(C2CC2)nc(C(=O)O)c1Cl             100

====

test system: redroot pigweed (Amaranthus retroflexus); experiment: Test A pre/postemergence; type: in vivo; details: Postemergence, 500 g ai/ha; 0 to 100 scale (0 no effect, 100 complete control)
Rule: Plant response rating, Pigweed of 60 or more gives Y; anything lower gives N.

> print(dat)
                                    compound  group
 1         CC(C)N.Nc1nc(C2CC2)nc(C(=O)O)c1Cl      Y
 2  CS(=O)(=O)NC(=O)c1nc(-c2ccc(Cl)cc2)nc(N)c1Cl      Y
 3       COC(=O)c1nc(-c2ccc(Cl)cc2)nc(N)c1Br      Y
 4        NC(=O)c1nc(-c2ccc(Br)cc2)nc(N)c1Br      N
 5    Nc1nc(C2CC2)nc(C(=O)Oc2ccc(Cl)cc2)c1Cl      Y
 6  Nc1nc(C2CC2)nc(C(=O)OCC2CO2)c1Cl (centres unmarked)      Y
 7  COC(=O)c1nc(-c2ccc([S+](C)[O-])cc2)nc(N)c1Cl (centres unmarked)      N
 8    CCOC(=O)COc1nc(-c2ccc(Cl)cc2)nc(N)c1Cl      N
 9         Nc1nc(-c2ccc(F)cc2)nc(C(=O)O)c1Br      Y
10      CCOC(OCC)c1nc(-c2ccc(I)cc2)nc(N)c1Cl      N
11             COC(=O)COc1nc(C2CC2)nc(N)c1Cl      N
12       CCOC(=O)c1nc(-c2ccc(I)cc2)nc(N)c1Cl      Y
13       Cc1ccc(-c2nc(N)c(Br)c(C(=O)O)n2)cc1      Y
14        COC(=O)c1nc(-c2ccc(C)cc2)nc(N)c1Cl      Y
15      CCOC(=O)c1nc(-c2ccc(CC)cc2)nc(N)c1Cl      N
16        COC(=O)COC(=O)c1nc(C2CC2)nc(N)c1Cl      Y
